System: HT29
Experiment: cells
Format: cell-based
property_label: HT29 HCR: Air/N2

1) CC(=O)Nc1ccc(CC(c2ccsc2[N+](=O)[O-])S(=O)(=O)Oc2ccc(N(CCCl)CCCl)cc2)cc1 (stereo not drawn) : 3.2
2) O=[N+]([O-])c1sccc1C(Cc1cccnc1)S(=O)(=O)Oc1ccc(N(CCCl)CCCl)cc1 (stereo not drawn) : 15
3) Nc1ccc(CC(c2ccsc2[N+](=O)[O-])S(=O)(=O)Oc2ccc(N(CCCl)CCCl)cc2)cc1.O=C(O)C(F)(F)F (stereo not drawn) : 21
4) CC(=O)Nc1ccc(CC(c2ccsc2[N+](=O)[O-])S(=O)(=O)Oc2ccc(N(CCCl)CCCl)cc2)cn1 (stereo not drawn) : 1.3
5) CN1CCN(S(=O)(=O)CCC(c2ccsc2[N+](=O)[O-])S(=O)(=O)Oc2ccc(N(CCCl)CCCl)cc2)CC1 (stereo not drawn) : 48
6) O=[N+]([O-])c1sccc1C(Cc1ccc2c(c1)nnn2CCO)S(=O)(=O)Oc1ccc(N(CCCl)CCCl)cc1 (stereo not drawn) : 42
7) COCC(=O)Nc1ccc(CC(c2ccsc2[N+](=O)[O-])S(=O)(=O)Oc2ccc(N(CCCl)CCCl)cc2)cc1 (stereo not drawn) : 2.7
8) CC(=O)Nc1cc(CC(c2ccsc2[N+](=O)[O-])S(=O)(=O)Oc2ccc(N(CCCl)CCCl)cc2)ccn1 (stereo not drawn) : 10

* * *

System: HT29
Assay: cells
Format: cell-based
Conditions: Homo sapiens, HT-29, 2 h, read-out: 2 hr N2 HT29 IC50
pIC50: −log10 of the molar value.
Entries and their pIC50 values follow.
property_label: pIC50

1) O=[N+]([O-])c1sccc1C(Cc1ccc(C(F)(F)F)nc1)S(=O)(=O)Oc1ccc(N(CCCl)CCCl)cc1 (centres unmarked) [TH-1423] : < 3.52
2) O=[N+]([O-])c1sccc1C(Cc1ccc(OCCO)cc1)S(=O)(=O)Oc1ccc(N(CCCl)CCCl)cc1 (centres unmarked) [TH-1325] : < 3.52
3) O=[N+]([O-])c1sccc1C(CCS(=O)(=O)c1ccncc1)S(=O)(=O)Oc1ccc(N(CCCl)CCCl)cc1 (centres unmarked) [TH-1363] : < 3.00
4) O=[N+]([O-])c1sccc1C(CCS(=O)(=O)N1CCOCC1)S(=O)(=O)Oc1ccc(N(CCCl)CCCl)cc1 (centres unmarked) [TH-1303] : < 3.52
5) O=[N+]([O-])c1sccc1C(Cc1cnc(OCCO)c(Cl)c1)S(=O)(=O)Oc1ccc(N(CCCl)CCCl)cc1 (centres unmarked) [TH-1420] : < 3.52
6) O=C1c2ccccc2C(=O)N1CC(c1ccsc1[N+](=O)[O-])S(=O)(=O)Oc1ccc(N(CCCl)CCCl)cc1 (centres unmarked) [TH-1327] : < 3.00
7) COc1ccc(CC(c2ccsc2[N+](=O)[O-])S(=O)(=O)Oc2ccc(N(CCCl)CCCl)cc2)c(OC)n1 (centres unmarked) [TH-1362] : < 3.00
8) O=[N+]([O-])c1sccc1C(CCS(=O)(=O)c1ccccc1)S(=O)(=O)Oc1ccc(N(CCCl)CCCl)cc1 (centres unmarked) [TH-1278] : < 3.00

* * *

Tested on: HT29
Assay: cells
Format: cell-based
property_label: HT29 HCR: Air/N2

1) O=[N+]([O-])c1sccc1C(Cn1nnc2ccccc21)S(=O)(=O)Oc1ccc(N(CCCl)CCCl)cc1 (stereo not shown) [TH-1343] : >4.2
2) O=[N+]([O-])c1sccc1C(Cc1ccc(O)nc1)S(=O)(=O)Oc1ccc(N(CCCl)CCCl)cc1 (stereo not shown) [TH-1305] : >44
3) O=[N+]([O-])c1sccc1C(Cc1ccc2nccn2c1)S(=O)(=O)Oc1ccc(N(CCCl)CCCl)cc1 (stereo not shown) [TH-1435] : >35
4) O=[N+]([O-])c1sccc1C(COC1CCCCC1)S(=O)(=O)Oc1ccc(N(CCCl)CCCl)cc1 (stereo not shown) [TH-1521] : >3.2
